Target: M4 muscarinic receptor (Homo sapiens)
Construct: expressed in transfected cells; host or cells: CHO (M4-CHO)
Sequence (P08173 1-479): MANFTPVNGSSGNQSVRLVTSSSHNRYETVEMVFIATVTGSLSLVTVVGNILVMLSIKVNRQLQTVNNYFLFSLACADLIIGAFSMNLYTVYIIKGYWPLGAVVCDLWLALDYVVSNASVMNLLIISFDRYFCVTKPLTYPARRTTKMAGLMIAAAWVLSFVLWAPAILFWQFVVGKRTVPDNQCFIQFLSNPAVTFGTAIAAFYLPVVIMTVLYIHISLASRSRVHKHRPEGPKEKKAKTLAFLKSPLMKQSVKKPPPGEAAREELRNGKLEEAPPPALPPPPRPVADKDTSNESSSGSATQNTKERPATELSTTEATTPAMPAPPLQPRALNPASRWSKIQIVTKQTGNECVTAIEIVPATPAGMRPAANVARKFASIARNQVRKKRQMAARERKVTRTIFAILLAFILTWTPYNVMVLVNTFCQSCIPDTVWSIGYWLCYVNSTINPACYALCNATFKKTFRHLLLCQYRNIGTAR
Test: Functional mobilization of intracellular calcium (FLIPR) in M4-CHO cells
Assay type: cell-based
Settings: Table 4; 100% efficacy is the maximum response obtained with the Carbachol control
Form field: Emax (one value per entry).
PARAMETER MEASURED: Emax

- COMPOUND: "CCOC(=O)N1CCC(N2CCC3(CC[C@H](NC(=O)N(C)C)c4ccccc43)CC2)CC1 [compound 961]"
  SYSTEM NAME: "M4 muscarinic receptor (Homo sapiens)"
  PARAMETER MEASURED: "Emax"
  MEASURED: "25 to 100%"
- COMPOUND: "CCOC(=O)N1CCC(N2CCC3(CC2)CN(C(C)=O)c2c(C4=CCCC4)cccc23)CC1 [compound 930]"
  SYSTEM NAME: "M4 muscarinic receptor (Homo sapiens)"
  PARAMETER MEASURED: "Emax"
  MEASURED: "< 25%"
- COMPOUND: "CC(=O)N[C@H]1CC2(CCN(CC(=O)N3CCC(=O)N3)CC2)c2ccccc21 [compound 780]"
  SYSTEM NAME: "M4 muscarinic receptor (Homo sapiens)"
  PARAMETER MEASURED: "Emax"
  MEASURED: "< 25%"
- COMPOUND: "CCOC(=O)N1C2CCC1CC(N1CCC3(CC1)CN(C(C)=O)c1c(C)cccc13)C2 (stereo not shown) [compound 444]"
  SYSTEM NAME: "M4 muscarinic receptor (Homo sapiens)"
  PARAMETER MEASURED: "Emax"
  MEASURED: "25 to 100%"
- COMPOUND: "COc1ccc(N2CCC(N3CCC4(CC3)CN(C(=O)N(C)C)c3ccc(F)cc34)CC2)cc1 [compound 990]"
  SYSTEM NAME: "M4 muscarinic receptor (Homo sapiens)"
  PARAMETER MEASURED: "Emax"
  MEASURED: "25 to 100%"
- COMPOUND: "CCOC(=O)N1CC2(CCN(C3CC4CCC3C4)CC2)c2cc(C)ccc21 (stereo not shown) [compound 902]"
  SYSTEM NAME: "M4 muscarinic receptor (Homo sapiens)"
  PARAMETER MEASURED: "Emax"
  MEASURED: "< 25%"
- COMPOUND: "CN(C)C(=O)N1CC2(CCN(C3CCN(c4cccnc4)CC3)CC2)c2cc(F)ccc21 [compound 535]"
  SYSTEM NAME: "M4 muscarinic receptor (Homo sapiens)"
  PARAMETER MEASURED: "Emax"
  MEASURED: "25 to 100%"
- COMPOUND: "C#CCCOC(=O)N1CCC(N2CCC3(CC2)CN(C(C)=O)c2ccccc23)CC1 [compound 989]"
  SYSTEM NAME: "M4 muscarinic receptor (Homo sapiens)"
  PARAMETER MEASURED: "Emax"
  MEASURED: "< 25%"
- COMPOUND: "CC(=O)NC1CCC2(CCN(CCC3CCN(C(C)=O)CC3)CC2)c2ccccc21 (stereo not shown) [compound 833]"
  SYSTEM NAME: "M4 muscarinic receptor (Homo sapiens)"
  PARAMETER MEASURED: "Emax"
  MEASURED: "25 to 100%"
- COMPOUND: "CCOC(=O)N1CCC(N2CCC3(CC2)CN(c2ccc(F)cc2)c2ccc(F)cc23)CC1 [compound 808]"
  SYSTEM NAME: "M4 muscarinic receptor (Homo sapiens)"
  PARAMETER MEASURED: "Emax"
  MEASURED: "25 to 100%"
- COMPOUND: "CCOC(=O)N1CCC(N2CCC3(CC2)CN(C(=O)CCOC)c2ccc(F)cc23)CC1 [compound 714]"
  SYSTEM NAME: "M4 muscarinic receptor (Homo sapiens)"
  PARAMETER MEASURED: "Emax"
  MEASURED: "25 to 100%"
- COMPOUND: "CC(=O)NC1CC2(CCN(C3CCCC3)CC2)c2ccccc21 (stereo not shown) [compound 922]"
  SYSTEM NAME: "M4 muscarinic receptor (Homo sapiens)"
  PARAMETER MEASURED: "Emax"
  MEASURED: "25 to 100%"
- COMPOUND: "CN(C)C(=O)N1CC2(CCN(C3CCN(C(=O)CC#N)CC3)CC2)c2cc(F)ccc21 [compound 729]"
  SYSTEM NAME: "M4 muscarinic receptor (Homo sapiens)"
  PARAMETER MEASURED: "Emax"
  MEASURED: "< 25%"
- COMPOUND: "O=C(N[C@H]1CC2(CCN(C[C@@H]3C[C@H]4C=C[C@H]3C4)CC2)c2ccccc21)c1ccoc1 [compound 519]"
  SYSTEM NAME: "M4 muscarinic receptor (Homo sapiens)"
  PARAMETER MEASURED: "Emax"
  MEASURED: "< 25%"
- COMPOUND: "CCOC(=O)N1CCC(N2CCC3(CC2)CN(c2cncnc2)c2ccccc23)CC1 [compound 905]"
  SYSTEM NAME: "M4 muscarinic receptor (Homo sapiens)"
  PARAMETER MEASURED: "Emax"
  MEASURED: "25 to 100%"
- COMPOUND: "CCOC(=O)N1CCC(N2CCC3(CC2)CN(c2ncccn2)c2ccc(F)cc23)CC1 [compound 567]"
  SYSTEM NAME: "M4 muscarinic receptor (Homo sapiens)"
  PARAMETER MEASURED: "Emax"
  MEASURED: "25 to 100%"
- COMPOUND: "CCOC(=O)N1CCC(N2CCCC3(CC2)CN(C(C)=O)c2ccc(F)cc23)C1 (stereo not shown) [compound 473]"
  SYSTEM NAME: "M4 muscarinic receptor (Homo sapiens)"
  PARAMETER MEASURED: "Emax"
  MEASURED: "< 25%"
- COMPOUND: "CC(=O)N[C@H]1CC2(CCN(CC3CCCC3)CC2)c2ccccc21 [compound 934]"
  SYSTEM NAME: "M4 muscarinic receptor (Homo sapiens)"
  PARAMETER MEASURED: "Emax"
  MEASURED: "25 to 100%"
- COMPOUND: "CN(C)C(=O)N1CC2(CCN(C3CCN(c4ncccn4)CC3)CC2)c2cc(F)ccc21 [compound 790]"
  SYSTEM NAME: "M4 muscarinic receptor (Homo sapiens)"
  PARAMETER MEASURED: "Emax"
  MEASURED: "25 to 100%"
- COMPOUND: "CC(=O)N1CC2(CCN(C3CCN(C(=O)OC(C)C)CC3)CC2)c2ccccc21 [compound 440]"
  SYSTEM NAME: "M4 muscarinic receptor (Homo sapiens)"
  PARAMETER MEASURED: "Emax"
  MEASURED: "25 to 100%"
- COMPOUND: "O=C1CCCN1[C@H]1CCC2(CCN([C@@H]3CC4CC[C@H]3C4)CC2)c2ccccc21 [compound 766]"
  SYSTEM NAME: "M4 muscarinic receptor (Homo sapiens)"
  PARAMETER MEASURED: "Emax"
  MEASURED: "25 to 100%"
- COMPOUND: "COC(=O)N1CCCC(N2CCC3(CC2)CN(C(=O)N(C)C)c2ccc(F)cc23)CC1 (stereo not shown) [compound 628]"
  SYSTEM NAME: "M4 muscarinic receptor (Homo sapiens)"
  PARAMETER MEASURED: "Emax"
  MEASURED: "25 to 100%"
- COMPOUND: "CN(C)C(=O)N1CC2(CCN(C[C@@H]3CCN(C(=O)OCC(F)F)C3)CC2)c2cc(F)ccc21 [compound 625]"
  SYSTEM NAME: "M4 muscarinic receptor (Homo sapiens)"
  PARAMETER MEASURED: "Emax"
  MEASURED: "> 100%"
- COMPOUND: "CC(=O)N1CC2(CCN(C3CCN(c4nccs4)CC3)CC2)c2cc(F)ccc21 [compound 976]"
  SYSTEM NAME: "M4 muscarinic receptor (Homo sapiens)"
  PARAMETER MEASURED: "Emax"
  MEASURED: "25 to 100%"
- COMPOUND: "CCCOC(=O)N1CC[C@@H](CN2CCC3(CC2)CN(C(C)=O)c2ccccc23)C1 [compound 478]"
  SYSTEM NAME: "M4 muscarinic receptor (Homo sapiens)"
  PARAMETER MEASURED: "Emax"
  MEASURED: "< 25%"
- COMPOUND: "Cc1ccc2c(c1)C1(CCN(C3CC4CCC3C4)CC1)CN2C(=O)NC(C)C (stereo not shown) [compound 667]"
  SYSTEM NAME: "M4 muscarinic receptor (Homo sapiens)"
  PARAMETER MEASURED: "Emax"
  MEASURED: "25 to 100%"
- COMPOUND: "C[C@@H](O)CC(=O)N1CCC(N2CCC3(CC2)CN(C(=O)N(C)C)c2ccc(F)cc23)CC1 [compound 463]"
  SYSTEM NAME: "M4 muscarinic receptor (Homo sapiens)"
  PARAMETER MEASURED: "Emax"
  MEASURED: "< 25%"
- COMPOUND: "CCOC(=O)N1CCC(CN2CCCC3(CC2)CN(C(C)=O)c2ccc(F)cc23)CC1 (stereo not shown) [compound 1003]"
  SYSTEM NAME: "M4 muscarinic receptor (Homo sapiens)"
  PARAMETER MEASURED: "Emax"
  MEASURED: "25 to 100%"
